The values you see were collected from PubChem BioAssay AID588780.

test system: H9c2 cardiomyocytes, 2-deoxyglucose stress, ATP luminescence, 2 h; assay: H9c2 cell survival under 2-deoxyglucose stress – uHTS hits, dose response (AID 588780)
The source made the active and inactive calls.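 Rule for the calls: active = compounds whose fitted half-maximal concentration in the cell-protection dose series is at or below a set limit; inactive = the rest.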
Return exactly one item of active, inactive

[
  {
    "molecule": "O=C(CSC1=NNC(c2ccccn2)S1)Nc1cccc(Cl)c1 (configuration not stated)",
    "group": "inactive"
  },
  {
    "molecule": "Cc1c(O)ccc2c(-c3ccccc3)cc(=O)oc12",
    "group": "active"
  },
  {
    "molecule": "O=C(COc1cccc2c1CCNC2=O)Nc1cccc(F)c1",
    "group": "active"
  },
  {
    "molecule": "O=c1[nH]nc(Cc2ccccn2)c2ccccc12",
    "group": "inactive"
  },
  {
    "molecule": "COc1ccc(C(=O)Nc2cc(C)nn2-c2nc3ccccc3[nH]2)c(OC)c1",
    "group": "active"
  }
]

Data request: Could you check what this test reported for `COc1ccc(-n2c(/C=C/c3ccc(O)c(OC)c3)nc3ccccc3c2=O)cc1` ?
Data returned: inactive

Data request: Hey, what did the test say about CSc1nsc(SC)c1C(=O)N1CCN(S(=O)(=O)c2ccc(C)cc2)C1C(C)C (configuration not stated) ?
Data returned: active

Data request: Identify the outcome logged in this assay for the molecule shown: Cc1nn(C)cc1C(C(=O)NC1CCCCC1)N(C(=O)Cc1cccs1)c1ccc(Cl)cc1 (configuration not stated)
Data returned: active

Data request: For `COc1ccc(NC(=O)CCCc2nc3ccccc3c(=O)[nH]2)cc1Cl` , which call appears in the assay record?
Data returned: inactive

Data request: What did this assay record as the result for O=C(CN1C(=O)C2C3C=CC(C3)C2C1=O)Nc1nc(-c2ccccn2)cs1 (configuration not stated) ?
Data returned: active

Data request: # lookup: test call for `COc1ccc(-c2cc(C(=O)NNC(=O)c3csc(N4CCOCC4)n3)c3ccccc3n2)cc1`
Data returned: inactive
